assay: soluble on expression in E. coli; label from the status in PepcDB or PDB records
experimental-readout: soluble on expression in E. coli

Some sequences with known soluble on expression in E. coli results, for comparison:
FQIGDMVARKSYQMDVLFRIIGIEQTSKGNSIAILHGDEVRLIADSDFSDLVAVKKDEQMMRKKKDESRMNESLELLRQDYKLLREKQEYYATSQYQHQEHYFHMPGKVLHLDGDEAYLKKCLNVYKKIGVPVYGIHCHEKKMSASIEVLLDKYRPDILVITGHDAYSKQKGGIDDLNAYRHSKHFVETVQTARKKIPHLDQLVIFAGACQSHFESLIRAGANFASSPSRVNIHALDPVYIVAKISFTPFMERINVWEVLRNTLTREKGLGGIETRGVLRIGMPYKSN: not soluble
MSLANQVLAVNDDLPIRTHKPVHSGKVRSVYWLTEEDSARLIKEKGYDVAPDAPLAIMVISDRISAFDCIWHGEGGLKGVPGKGAALNAISNHWFKLFKDNGLADSHILDIPHPFVWIVQKAKPVKIEAICRKYITGSMWRAYANGEREFCGIQLPEGLEKDKALPNLLMTPSTKGILKGIPGVPEADDVNITRQNIVDNYEAFNFSSAEDIAQYEKLLKEGFNVISQALEGIDQIFVDTKFEFGYVHDAAGNEKLIYMDEVGTPDSSRIWDAKEYQAGNIVENSKEGFRQFLLNHFPDPDILLNKERMPEREALARDNDLPVESLMDISRTYIGIAEKITGKPITLSENPKAEIIEILSKEYGLIDEGHHHHHH: soluble
GSHMASMFGKLREKLKSFVKRVEEEVEKEEEEVEKKGLLDRILTVEIKEKDVDKALDELEIDLLEADVALEVVDALREKIKQKLVGKKVRIGTDKGKIIEEAVKEAVSEILETSRRIDLIEEIRKAEKPYVIMFVGFNGSGKTTTIAKLANWLKNHGFSVVIAASDTFRAGAIEQLEEHAKRIGVKVIKHSYGADPAAVAYDAIQHAKARGIDVVLIDTAGRSETNRNLMDEMKKIARVTKPNLVIFVGDALAGNAIVEQARQFNEAVKIDGIILTKLDADARGGAALSISYVIDAPILFVGVGQGYDDLRPFEKEWFLERIFGEENA: soluble
MSLNIETKKVAVEEISAAIANAQTLVVAEYRGISVSSMTELRANARKEGVYLRVLKNTLARRAVQGTSFAELADQMVGPLVYAASEDAVAAAKVLHQFAKKDDKIVVKAGSYNGEVMNAAQVAELASIPSREELLSKLLFVMQAPVSGFARGLAALAEKKAGEEAA: not soluble

Could you now consider this next sequence?
Name the recorded soluble on expression in E. coli for MKEAGILFEELVSIMEKLRSPEGCEWDRKQTHESLKPYLIEECYELIEAIDEKNDDMMKEELGDVLLQVVFHAQIARERGAFTIEDVIRTLNEKLIRRHPHVFGDSPGYSYKQWEDIKAQEKGKKKSSRIGEINPLVPALSMARRIQENASQVGFDWKDPEGVYEKIEEELKELKEAKDPRELEEEFGDLLFSIVNLSRFLNVDPESALRKATRKFVERFKKMEELIEKDGLVLEELPIEKLDEYWEKAKGGDET . soluble
